Data provenance: paper PMC9632859

Target: GluN1-GluN2A containing receptors (Homo sapiens, UniProt Q05586+Q12879)
Sequence (Q12879 23-1464, other chains not shown): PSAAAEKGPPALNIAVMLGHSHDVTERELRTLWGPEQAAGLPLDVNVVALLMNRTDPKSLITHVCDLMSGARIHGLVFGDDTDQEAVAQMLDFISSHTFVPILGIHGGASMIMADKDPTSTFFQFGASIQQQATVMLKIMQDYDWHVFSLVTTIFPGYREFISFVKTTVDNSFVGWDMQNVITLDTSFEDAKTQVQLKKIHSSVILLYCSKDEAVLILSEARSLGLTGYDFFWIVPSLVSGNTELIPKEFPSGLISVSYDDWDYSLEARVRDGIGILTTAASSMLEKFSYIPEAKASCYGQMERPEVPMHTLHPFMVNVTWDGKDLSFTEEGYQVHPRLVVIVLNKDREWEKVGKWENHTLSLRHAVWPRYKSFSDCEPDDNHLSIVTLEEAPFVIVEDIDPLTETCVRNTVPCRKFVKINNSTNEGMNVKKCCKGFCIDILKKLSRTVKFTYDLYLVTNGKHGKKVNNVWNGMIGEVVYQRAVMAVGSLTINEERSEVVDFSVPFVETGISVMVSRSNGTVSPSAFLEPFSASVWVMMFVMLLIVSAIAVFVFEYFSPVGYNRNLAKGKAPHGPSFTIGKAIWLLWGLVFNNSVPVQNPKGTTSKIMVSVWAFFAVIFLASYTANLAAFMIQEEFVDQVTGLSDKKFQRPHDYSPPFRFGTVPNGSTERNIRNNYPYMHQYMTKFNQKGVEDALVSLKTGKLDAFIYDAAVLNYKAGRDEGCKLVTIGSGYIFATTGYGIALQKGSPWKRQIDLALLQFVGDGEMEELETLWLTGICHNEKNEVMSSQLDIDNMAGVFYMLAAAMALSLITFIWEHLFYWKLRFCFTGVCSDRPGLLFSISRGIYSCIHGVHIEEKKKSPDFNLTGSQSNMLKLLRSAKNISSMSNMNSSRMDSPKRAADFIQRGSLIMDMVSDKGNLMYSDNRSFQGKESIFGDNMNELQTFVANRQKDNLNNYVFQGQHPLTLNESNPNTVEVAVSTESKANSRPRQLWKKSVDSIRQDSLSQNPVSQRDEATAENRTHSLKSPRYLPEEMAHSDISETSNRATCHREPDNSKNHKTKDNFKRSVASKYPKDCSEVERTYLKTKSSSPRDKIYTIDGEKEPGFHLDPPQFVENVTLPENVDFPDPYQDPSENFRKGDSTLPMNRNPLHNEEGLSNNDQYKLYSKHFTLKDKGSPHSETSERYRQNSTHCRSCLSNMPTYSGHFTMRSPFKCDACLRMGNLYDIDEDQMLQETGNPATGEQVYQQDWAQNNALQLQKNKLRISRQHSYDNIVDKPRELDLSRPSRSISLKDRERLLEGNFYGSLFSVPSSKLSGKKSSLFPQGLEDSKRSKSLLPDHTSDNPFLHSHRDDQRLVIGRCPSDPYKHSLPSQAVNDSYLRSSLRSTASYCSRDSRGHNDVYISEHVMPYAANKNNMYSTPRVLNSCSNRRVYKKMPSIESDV
Experiment: NMDA-evoked currents in JM4C fibroblasts expressing GluN1-GluN2A
Conditions: 0.1–100 µM, read-out: IC50 of reduction of NMDA-evoked current, GluN1-GluN2A
Readout Name: IC50 (µM)
Only the number, expressed in µM, is required.

| Compound | Readout Name | Meas Value |
| --- | --- | --- |
| Cl.c1ccc2oc(C3=NCCN3)cc2c1 [2-BFI, reference compound] | IC50 | 23 |

Proceed to the following item.
-- ask What does the record list as IC50 for `c1ccc(-c2ncc3cc(-n4ccnc4)ccc3n2)cc1` ?
-- reply 21
